Parameter: melting point. Scope: all listed entries.

MOLECULE: CC(=O)NC[C@H]1CN(c2ccc(OC3CCN(c4ccc(C#N)cn4)CC3)c(F)c2)C(=O)O1
melting point: 78 to 84 °C
//
MOLECULE: CC(=O)NC[C@H]1CN(c2ccc(OC3CN(C(=O)COC(C)=O)C3)c(F)c2)C(=O)O1
melting point: 172 to 175 °C
//
MOLECULE: CC(=O)NC[C@H]1CN(c2ccc(OC3CCN(S(=O)(=O)N(C)C)CC3)c(F)c2)C(=O)O1
melting point: 132 to 134 °C

Query CC(=O)NC[C@H]1CN(c2ccc(OC3CCN(C(=O)c4cccc(C(F)(F)F)c4)CC3)c(F)c2)C(=O)O1 yields melting point of 150 to 152 °C

Query CC(=O)NC[C@H]1CN(c2ccc(OC3CCN(C(=O)c4ccccc4)CC3)nc2)C(=O)O1 yields melting point of 180 to 182 °C

Query CC(=O)NC[C@H]1CN(c2ccc(OC3CCN(S(C)(=O)=O)CC3)c(F)c2)C(=O)O1 yields melting point of 123 to 125 °C

Query CC(=O)NC[C@H]1CN(c2ccc(OC3CCN(C(=O)CCc4cccnc4)CC3)c(F)c2)C(=O)O1 yields melting point of 45 to 47 °C

Query CC(=O)NC[C@H]1CN(c2ccc(OC3CCN(C(=O)OC(C)(C)C)CC3)nc2)C(=O)O1 yields melting point of 99 to 101 °C

* * *

MEASUREMENT_TYPE: melting point

In the examples that follow, each entry is paired with its recorded melting point.
COMPOUND: CC(=O)NC[C@H]1CN(c2ccc(OC3CCN(C(=O)N(C)C)CC3)c(F)c2)C(=O)O1
melting point: 129 to 131 °C
--
COMPOUND: CC(=O)NC[C@H]1CN(c2ccc(OC3CN(C(=O)CO)C3)c(F)c2)C(=O)O1
melting point: 158 to 160 °C
--
COMPOUND: CC(=O)NC[C@H]1CN(c2ccc(OC3CCN(c4ncccn4)CC3)c(F)c2)C(=O)O1
melting point: 121 to 123 °C

Query CC(=O)NC[C@H]1CN(c2ccc(OC3CCN(C(=O)CCCc4cccnc4)CC3)c(F)c2)C(=O)O1 yields melting point of 42 to 45 °C

Query CC(=O)NC[C@H]1CN(c2ccc(OC3CCN(C(=O)OC(C)(C)C)CC3)c(F)c2)C(=O)O1 yields melting point of 179 to 180 °C

* * *

Parameter: melting point. Scope: all listed entries.

MOLECULE: CC(=O)NC[C@H]1CN(c2ccc(OC3CCN(C(=O)CNS(C)(=O)=O)CC3)c(F)c2)C(=O)O1
MEASUREMENT: 78 to 82 °C
--
MOLECULE: CC(=O)NC[C@H]1CN(c2ccc(OC3CCCN(C(=O)OC(C)(C)C)C3)c(F)c2)C(=O)O1 (stereo partly shown)
MEASUREMENT: 60 to 63 °C
--
MOLECULE: CC(=O)NC[C@H]1CN(c2ccc(OC3CCN(C(=O)c4ccccn4)CC3)c(F)c2)C(=O)O1
MEASUREMENT: 55 to 58 °C
--
MOLECULE: CC(=O)NC[C@H]1CN(c2ccc(OC3CCN(C(=O)c4cccc(C#N)c4)CC3)c(F)c2)C(=O)O1
MEASUREMENT: 82 to 85 °C
--
MOLECULE: CC(=O)NC[C@H]1CN(c2ccc(OC3CCN(C(=O)c4ccc(C#N)cc4)CC3)c(F)c2)C(=O)O1
MEASUREMENT: 75 to 78 °C

Query CC(=O)NC[C@H]1CN(c2ccc(OC3CCN(C(=O)CO)C3)c(F)c2)C(=O)O1 (stereo partly shown) yields melting point of 97 to 99 °C

Query CC(=O)NC[C@H]1CN(c2ccc(OC3CN(C(=O)COCc4ccccc4)C3)c(F)c2)C(=O)O1 yields melting point of 119 to 121 °C
